Entries and their pIC50 values follow.
- Target System: Aβ derived from human (Human, 1-42) (Homo sapiens, UniProt P05067)
- Sequence (P05067 672-713 limits assumed): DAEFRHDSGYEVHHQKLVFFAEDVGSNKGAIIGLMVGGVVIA
Schema: pIC50 number; meaning minus log10 of the concentration expressed in molar units.

>  <Compound>
COc1cc2oc(-c3ccc(O)c(O)c3)cc(=O)c2c(O)c1O[C@@H]1O[C@H](CO)[C@@H](O)[C@H](O)[C@H]1O [Pedaliin, pedaliin]

>  <Measured Result>
5.55

$$$$

Okay, now this compound:
Record for C[C@@H]1O[C@@H](O[C@@H]2[C@@H](O)[C@H](OCCc3ccc(O)c(O)c3)O[C@H](CO)[C@H]2OC(=O)/C=C/c2ccc(O)c(O)c2)[C@H](O)[C@H](O)[C@H]1O [Acteoside, acteoside] under target or system Aβ derived from human (Human, 1-42) (Homo sapiens, UniProt P05067): pIC50 reported as 4.89
